Attribution: ChEMBL document CHEMBL1201862

# Test system: HCT-116
# procedure_details: NCI tumour cell line growth inhibition, 48 h
Active and inactive are the calls of the source. No stated cut-off is given here; in the data, active = GI50 up to about 1.1 µM and inactive = higher.
measurement_kind: GI50

Worked cases, answers included:
1) C=C1C(OC2O[C@@H]3O[C@@]4(C)CC[C@H]5[C@H](C)CC[C@@H](C2=C)[C@@]35O4)O[C@@H]2O[C@@]3(C)CC[C@H]4[C@H](C)CC[C@@H]1[C@@]24O3 (some centres not stated) | > 50 µM (inactive)
2) COc1cc(C=C2N=C(c3ccccc3)N(n3c(-c4ccccc4)nc4ccccc4c3=O)C2=O)cc(OC)c1OC | 22.2 µM (inactive)

Dear colleague, could you send me GI50 for each of the items below? Thanks.
1. COCCCN(Cc1cc(OC)c(OC)c(OC)c1)C(=S)Nc1cccc(Cl)c1
2. COc1cccc(C(=O)O[C@H]2[C@@H]3[C@]4(OC(C)=O)CO[C@@H]4C[C@H](O)[C@@]3(C)C(=O)[C@H](OC(C)=O)C3=C(C)[C@@H](OC(=O)[C@H](O)[C@@H](NC(=O)OC(C)(C)C)c4ccco4)C[C@]2(O)C3(C)C)c1
3. O=C1c2ccccc2C(=O)c2c(NCCNC(=O)C3CCCN3)ccc(NCCNC(=O)C3CCCN3)c21 (configuration not stated)
4. c1ccc(/N=C2\c3ccccc3C3=NCCCN32)cc1
5. Cc1nc2c(nc1C)-c1c(c3c(n1Cc1ccccc1)C(=O)CCC3)C(=O)C2=O
6. COc1ccccc1/C=C\c1cc(OC)c(OC)c(OC)c1
7. COc1cc(S(=O)(=O)Nc2ccc(-c3csc(N4C(=O)C(Cl)C4c4cccs4)n3)cc2)ccc1Cl (configuration not stated)

[out]
1: 17.2 µM (inactive); 2: < 0.00375 µM (active); 3: 2.65 µM (inactive); 4: 40.2 µM (inactive); 5: 4.84 µM (inactive); 6: 9.23 µM (inactive); 7: 98.9 µM (inactive)

----------
# Tested on: MDA-N
# procedure_details: NCI tumour cell line growth inhibition, 48 h
Activity calls are given as the source filed them. No stated cut-off is given here; in the data, active = GI50 up to about 1.1 µM and inactive = higher.
Returns: one label drawn from active, inactive

Worked cases, answers included:
1. CC1(C)CC(=O)C(Cc2ccccc2)(Cc2ccccc2)C(=O)C1 | inactive
2. Cc1cc(OCc2nc(N)nc(N)c2-c2ccc(Cl)c(Cl)c2)ccc1[N+](=O)[O-] | active
3. C[N+]1(C)CC=C(N2CCOCC2)CC1 | inactive

Okay, next one:
[in] Dear all, I need the recorded test outcome for CCOC(=O)/C(C(=O)Nc1ccc(F)cc1)=C(/N)N1CCCC1 , thank you.
[out] inactive

----------
For each entry below, report its GI50 value.
# Test system: UACC-257
# procedure_details: NCI tumour cell line growth inhibition, 48 h
Activity calls are given as the source filed them. Rule as the data show it: active = GI50 up to about 1.1 µM and inactive = higher.

Dear colleague, could you send me GI50 for each of the items below? Thanks.
1. COc1ccc2c(c1)CCCc1cn[nH]c1-2
2. CC1CC(=O)N(N(C)C)C2(C#N)C(=O)N=C(N)C12C#N (configuration not stated)
3. Cc1cc(=O)oc2cc(OCc3c(F)cccc3Cl)ccc12
4. Cc1ccc(C(=O)Nc2ccc(CP(=O)(O)O)cc2)cc1NC(=O)c1cccc(NC(=O)Nc2cccc(C(=O)Nc3cc(C(=O)Nc4ccc(CP(=O)(O)O)cc4)ccc3C)c2)c1

[out]
> 100 µM (inactive)
> 100 µM (inactive)
78.5 µM (inactive)
> 100 µM (inactive)

Dear colleague, could you send me GI50 for each of the items below? Thanks.
1. COc1cc(CC(=O)c2ccc3c(c2)OCO3)cc(OC)c1OC
2. CCOC(=O)/C=C/[C@H](O)[C@@H](O)/C=C/C(=O)OCC
3. Cc1nc(C)c(Cc2ccccc2)o1
4. CCNC(=O)N(CC)CN(CC)C(=O)NCC
5. CCN(CC)CCC1(C2CCCCC2)CCC(=O)NC1=O (configuration not stated)
6. CCCCCCCCCCCCCCCCOC(=O)C(C(=O)OCCCCCCCCCCCCCCCC)[N+](C)(C)CCOC(C)=O
7. C[C@]12CCC(=O)C=C1CC[C@@H]1C2CC[C@]2(C)Nc3c(ncn3-c3ccc(F)cc3)CC12 (some centres not stated)
8. O=C(CC(=O)c1ccccc1)C(=O)NC12CC3CC(CC(C3)C1)C2

[out]
1. > 100 µM (inactive)
2. 45.8 µM (inactive)
3. > 100 µM (inactive)
4. > 100 µM (inactive)
5. > 100 µM (inactive)
6. 19.1 µM (inactive)
7. 17.8 µM (inactive)
8. > 100 µM (inactive)

----------
# System: KM-20L2
# procedure_details: NCI tumour cell line growth inhibition, 48 h
Calls of active or inactive are those of the source. Rule as the data show it: active = GI50 up to about 1.1 µM and inactive = higher.
measurement_kind: GI50

1) CC(C)=CCc1c(C)cc2cc3c(c(O)c2c1O)C(=O)C=C(O)C3(CC=C(C)C)C/C=C(\C)CO (centres undefined) | 39.9 µM (inactive)
2) O=C/C(=C(/Cl)c1ccc(O)cc1)c1ccccc1 | 31 µM (inactive)
3) N#CCCN(c1ccc(/C=N/c2nc(-c3ccccc3)cs2)cc1)S(=O)(=O)c1ccccc1 | > 100 µM (inactive)

[in] Please provide the recorded GI50 for c1ccc(/N=C2\c3ccccc3C3=NCCCN32)cc1 , tested on KM-20L2.
[out] 59.2 µM (inactive)

----------
# Test system: SK-MEL-2
# procedure_details: NCI tumour cell line growth inhibition, 48 h
The source made the active and inactive calls. Cut-off read from the data, not from the text of the source: active = GI50 up to about 1.1 µM and inactive = higher.
measurement_kind: GI50

1. O=C1CCCCC1C(O)(C(F)(F)F)C(F)(F)Cl (stereo unspecified) | > 10 µM (inactive)
2. Cc1nc(O)nc(NNCc2ccc(Cl)cc2)c1C(=O)Nc1ccc(Cl)cc1 | > 100 µM (inactive)
3. COc1cc(CC(=O)c2ccc3c(c2)OCO3)cc(OC)c1OC | > 100 µM (inactive)
4. CCNC(=O)N(CC)CN(CC)C(=O)NCC | > 100 µM (inactive)
5. O=C(CC(=O)c1ccccc1)C(=O)NC12CC3CC(CC(C3)C1)C2 | > 100 µM (inactive)

// next item, GI50 requested
[in] What does the data say about its GI50? Entry: COc1cc(C2C3=C(COC3=O)OC(C)(C)Oc3cc4c(cc32)OCO4)cc(OC)c1O (stereo unspecified)
[out] 14.6 µM (inactive)

----------
# Test system: LOX IMVI
# procedure_details: NCI tumour cell line growth inhibition, 48 h
Activity calls are given as the source filed them. Cut-off read from the data, not from the text of the source: active = GI50 up to about 1.1 µM and inactive = higher.
Returns: one label drawn from active, inactive

1. O=C1C=C(N2CC2)C(=O)C=C1N1CC1 | active

[in] Dear all, I need the recorded test outcome for CN1C(=O)N(C)C(O)C(Cl)(Br)C1=O (stereo not given) , thank you.
[out] inactive

[in] Dear all, I need the recorded test outcome for CCN(CC)c1ccc(/C=C2\CCc3ccc([N+](=O)[O-])cc3C2=O)cc1 , thank you.
[out] active

[in] Dear all, I need the recorded test outcome for COc1cc(/C=C/C(=O)O)ccc1C(=O)O/C=C/c1ccccc1 , thank you.
[out] inactive

[in] Dear all, I need the recorded test outcome for Cc1nc2c(C)ccc([N+](=O)[O-])c2c(NCCCN(C)C)c1C , thank you.
[out] inactive

----------
# System: HOP-62
# procedure_details: NCI tumour cell line growth inhibition, 48 h
The source made the active and inactive calls. Rule as the data show it: active = GI50 up to about 1.1 µM and inactive = higher.
Returns: one label drawn from label 1 (active), label 0 (inactive)

[in] Dear all, I need the recorded test outcome for Cc1cccc(N2C(=O)C(Cl)=C(Cl)C2=O)c1 , thank you.
[out] label 0

[in] Dear all, I need the recorded test outcome for COc1ccccc1/C=C\c1cc(OC)c(OC)c(OC)c1 , thank you.
[out] label 0

[in] Dear all, I need the recorded test outcome for CCC1C(=O)OCc2c1cc1n(c2=O)Cc2cc3ccccc3nc2-1 (centres undefined) , thank you.
[out] label 0

[in] Dear all, I need the recorded test outcome for CC(=O)c1sc2c(c1OC(=O)c1ccccc1)c(=O)n(-c1ccccc1)c(=S)n2-c1ccccc1 , thank you.
[out] label 0

----------
# Test system: UACC-62
# procedure_details: NCI tumour cell line growth inhibition, 48 h
The source made the active and inactive calls. Cut-off read from the data, not from the text of the source: active = GI50 up to about 1.1 µM and inactive = higher.
For each entry below, report its GI50 value.

Worked cases, answers included:
1. COC(=O)/C(=C\Nc1cccc(C)n1)S(=O)(=O)c1ccc(C)cc1 | 31.5 µM (inactive)
2. NC(=O)/C(=C\c1ccncc1)c1cccc2ccccc12 | 25.3 µM (inactive)
3. CCN(CC)CC(C(C)=O)C(c1ccccc1)c1c(O)c2ccccc2oc1=O (stereo not drawn) | > 100 µM (inactive)
4. Cn1cnc(N2CCCC2)c(C#N)c1=O | > 100 µM (inactive)
5. CSc1ccc(NC(=O)C2CCCCC2C(=O)O)cc1 (stereo not drawn) | > 100 µM (inactive)

Dear colleague, could you send me GI50 for each of the items below? Thanks.
1. OCC(CO)CC1COc2ccccc2O1 (stereo not drawn)
2. COc1ccc(C(O)(c2ccccc2)c2nccc3ccccc23)cc1 (stereo not drawn)
3. Cc1nc(O)nc(N(CCO)/N=C/c2ccc(Cl)cc2)c1C(=O)Nc1ccc(Cl)cc1
4. O=C(Nc1nc2c(ncn2C2OC(CO)C(O)C2O)c(=O)[nH]1)c1ccccc1 (stereo not drawn)
5. COc1ccc(C2CCc3cc4c(cc3/C2=N/OC(C)=O)OCO4)cc1OC (stereo not drawn)
6. CC[P+]1(c2ccccc2)CCCCC1

[out]
1. > 10 µM (inactive)
2. 3.74 µM (inactive)
3. > 100 µM (inactive)
4. > 100 µM (inactive)
5. 18.2 µM (inactive)
6. > 100 µM (inactive)

Dear colleague, could you send me GI50 for each of the items below? Thanks.
1. CC(C)(C)[C@H]1CO[C@]2(C)[C@@H]3C[C@@H]3C(=O)N12
2. COC(=O)C1[C@H](c2cc(OC)c(OC)c(OC)c2)OC(=O)C1(C(=O)OC)C(=O)c1ccc2c(c1)OCO2 (stereo partly drawn)

[out]
1: > 100 µM (inactive); 2: > 100 µM (inactive)
